# Tested on: HCT-15 colon
# method-description: NCI-60 one-dose screen, 48 h (100 = growth as untreated, 0 = no growth, -100 = all killed)
# condition-set: 10 µM unless noted
Compounds without any hit were thinned out: in the full panel of roughly 83,000, 20% have a hit.
outcome-measure: growth (%)
Respond with the bare value in %.

See these solved cases before continuing.
CCN(CC)C(=O)c1cccnc1 :: 106
O=C=NC(c1ccccc1)(c1ccccc1)c1ccccc1 :: 102
OCc1ccccn1 :: 109
O=CC(O)C(O)C(O)CO (centres undefined) :: 100
Nc1ccccc1SC1CC(=O)N(c2cccc3ccccc23)C1=O (centres undefined) :: 99

Reported growth for COc1ccc(NC(=S)Nc2ccccn2)cc1 : what is it?
98.6

Continue with S=C1SCN(Cc2ccccc2)CN1Cc1ccccc1
39.8

Further, for O=C(Cc1cccc2ccccc12)N/N=C/c1ccc2c(c1)CCC2 ?
56.6

Also check c1ccc(N(c2ccccc2)c2ccccc2)cc1
99.8

Entry to check: CCOC(=O)c1sc(N)nc1-c1ccccc1
97.3

Cc1ccc(S(=O)(=O)NCN2C(=O)c3ccccc3C2=O)cc1 ?
99.3

###

# Tested on: SF-268 CNS
# method-description: NCI-60 one-dose screen, 48 h
# condition-set: 100 µM
The panel holds about 83,000 compounds, 20% with a hit somewhere; the sample as a whole holds those more often. Calls of active or inactive are those of the source. The calls were made as follows: active = growth percent below 10; inactive = the rest.
Thanks in advance; please answer with one of these: active, inactive

CC#C[C@]1(O)CC[C@H]2[C@@H]3CCC4=CC(=O)CCC4=C3[C@@H](c3ccc4c(c3)OCO4)C[C@@]21C :: active

Hey, what did the test say about CCc1ccccc1-n1c(N)c(C#N)c(-c2ccc(OC)c(OC)c2)c(C#N)c1=O ?
active

# iterate: COc1ccc(Cl)cc1C(=O)NCCc1ccc(S(=O)(=O)NC(=O)NC2CCCCC2)cc1
inactive

Subsequent entry: O=C(O)c1sccc1O
inactive

###

# Tested on: RPMI-8226 leukemia
# method-description: NCI-60 one-dose screen, 48 h (100 = growth as untreated, 0 = no growth, -100 = all killed)
# condition-set: 10 µM unless noted
This is part of a sample that, as a whole, favours compounds with a hit. Of some 83,000 tested, about 20% had one in any assay. The source made the active and inactive calls. Rule for the calls: active = growth percent below 10; inactive = the rest.
outcome-measure: growth

Field: example entries. Status: answers known.
C[N+](C)(C)CN1C(=O)c2ccccc2C1=O :: 106% (inactive)
CCOC(=O)C(CNc1ccccc1)C(=O)OCC :: 95.1% (inactive)
O=C1c2c(O)cc(O)cc2OC(c2ccc(O)c(O)c2)C1O (centres undefined) :: 99.5% (inactive)

Lookup: growth / RPMI-8226 leukemia / O=C(O)CSCc1nc2ccccc2[nH]1
94% (inactive)

Now consider CC(/C=N/N1C(=O)c2ccccc2C1=O)c1ccccc1 (centres undefined) .
97.9% (inactive)

Also CC(=O)NC(Cc1ccccc1)C(=O)Oc1ccc2ccccc2c1 (centres undefined) ?
90.2% (inactive)

Same again, this time with O=C(Cc1cccc2ccccc12)N/N=C/c1ccc2c(c1)CCC2
75.1% (inactive)

Then Nc1ccccc1SC1CC(=O)N(c2cccc3ccccc23)C1=O (centres undefined) ?
86.3% (inactive)

Repeat for the following compound: Cn1c(=O)n(-c2ccc(C(C)(C)C#N)cc2)c2c3cc(-c4cnc5ccccc5c4)ccc3ncc21
8.42% (active)

Moving on to CNC(=O)c1cccnc1
112% (inactive)

Now give it for Nc1nc(SC/C=C/CCl)c2[nH]cnc2n1 too.
100% (inactive)

Follow-up entry: CC(C)C(=O)Nc1ccc([N+](=O)[O-])c(C(F)(F)F)c1
63.9% (inactive)

Same read-out for CCCCCCCCCCCCOc1ccccc1C=O ?
96.4% (inactive)

Follow-up entry: N#CCCOc1ccccc1
103% (inactive)

For CCOC(=O)c1sc(N)nc1-c1ccccc1 then?
99.1% (inactive)

And the next one, Nc1ccc2ccc(N)cc2c1 ?
84.6% (inactive)

Check NC(=O)c1ccccc1OCC(O)CO (centres undefined) too.
99% (inactive)

And for O=C(CCc1ccc(O)cc1)N/N=C/c1cc(Br)ccc1O ?
45.2% (inactive)

Another compound: Cc1ccc(-c2noc(CC(=O)c3ccc([N+](=O)[O-])cc3)n2)cc1
116% (inactive)

// next record NC(=S)NS(=O)(=O)c1ccc(N)cc1
110% (inactive)

Item: S=C1SCN(Cc2ccccc2)CN1Cc1ccccc1
17% (inactive)

###

# Tested on: KM12 colon
# method-description: NCI-60 one-dose screen, 48 h (100 = growth as untreated, 0 = no growth, -100 = all killed)
# condition-set: 10 µM
The panel holds about 83,000 compounds, 20% with a hit somewhere; the sample as a whole holds those more often.
outcome-measure: growth (%)
Lab book: enter the figure in %, no units written.

For orientation, consider the following solved cases.
O=C(O)c1sccc1O :: 78.3
CC#C[C@]1(O)CC[C@H]2[C@@H]3CCC4=CC(=O)CCC4=C3[C@@H](c3ccc4c(c3)OCO4)C[C@@]21C :: 86.3

Provide value of growth for this record tested with KM12 colon: Cc1[nH]c(-c2nc3ccccc3[nH]2)c(C)c1C(=O)NC(C)C1CCCCC1 (stereo not drawn)
84.4

###

# System: BT-549 breast
# method-description: NCI-60 one-dose screen, 48 h
# condition-set: 10 µM unless noted
About 83,000 compounds went through this panel and 20% of them were active in at least one assay; those are over-represented in the sample as a whole. Calls of active or inactive are those of the source. Rule for the calls: active = growth percent below 10; inactive = the rest.
Result category, one only: 1 = active, 0 = inactive

CN(C)c1ccc2nc3ccc(N)cc3[n+](-c3ccccc3)c2c1 :: 0
Cc1ccc2nc3c(nc2c1)-c1cccc2cccc-3c12 :: 0
O=C1OC2(c3ccccc31)c1ccc(O)c(O)c1Oc1c2ccc(O)c1O :: 0
O=[N+]([O-])c1ccc(/C=N\NC(=S)Nc2ccc(F)cc2)cc1 :: 0
O=[N+]([O-])c1ccc2nc3c4ccccc4c4ccccc4c3nc2c1 :: 0
CCOC(=O)c1sc(N)nc1-c1ccccc1 :: 0
Fc1ccccc1Nc1n[nH]c(=S)s1 :: 0
CC1CCCc2sc3nc(NNC(=O)c4cnccn4)n(-c4ccccc4)c(=O)c3c21 (configuration not stated) :: 0

Name the outcome recorded for O=C(O)c1cc(C(=O)O)cc([N+](=O)[O-])c1 in the assay.
0

Same question, COc1ccc(/C(C#N)=C/c2ccccn2)cc1 this time
0

Let us now turn to Nc1ccc2ccc(N)cc2c1
0

Please do the same for Cc1c(Cl)cccc1NCN1C(=O)c2ccccc2C1=O as well.
0

###

# growth listing for each entry below
# Test system: OVCAR-5 ovarian
# method-description: NCI-60 one-dose screen, 48 h (100 = growth as untreated, 0 = no growth, -100 = all killed)
# condition-set: 10 µM unless noted
The panel holds about 83,000 compounds, 20% with a hit somewhere; the sample as a whole holds those more often.
Give the value, in units of %, as a plain number.

Reported growth for CCN(CC)C(=O)c1cccnc1 : what is it?
99.4

Queued: O=[N+]([O-])c1ccc(-n2[nH]nnc2=S)cc1
102

Queued: CCN(CC)CCCC(C)N(Cc1ccccc1)CC(O)c1ccc(Cl)cc1 (centres undefined)
91.2

And NC(=O)c1ccccc1OCC(O)CO (centres undefined) ?
99.5

###

# Test system: UO-31 renal
# method-description: NCI-60 one-dose screen, 48 h (100 = growth as untreated, 0 = no growth, -100 = all killed)
# condition-set: 10 µM unless noted
This is part of a sample that, as a whole, favours compounds with a hit. Of some 83,000 tested, about 20% had one in any assay.
The following molecules are shown together with reported growth values.
Could you give me the number in %? Just the number is fine.

Which growth is listed for Cc1n[nH]c(=O)n(/N=C\c2c[nH]c3ccccc23)c1=O ?
60.6

Try the molecule CNC(=O)c1cccnc1
84.8

Try S=C1SCN(Cc2ccccc2)CN1Cc1ccccc1 next.
26.7

###

# Test system: M14 melanoma
# method-description: NCI-60 one-dose screen, 48 h (100 = growth as untreated, 0 = no growth, -100 = all killed)
# condition-set: 10 µM unless noted
About 83,000 compounds went through this panel and 20% of them were active in at least one assay; those are over-represented in the sample as a whole.
Reported growth values for the following molecules.
Report only the number, with the unit % understood.

Fc1ccccc1Nc1n[nH]c(=S)s1 :: 109
CC(=O)C(/C=N/C(N)=O)=C(/C)O :: 108
Nc1ccc2ccc(N)cc2c1 :: 84.1
CCCCCCCCCCCCCCCCOc1ccc(C)cc1 :: 111

Shifting focus to the molecule that follows.
What value of measured growth is listed for O=[N+]([O-])c1ccc(-n2[nH]nnc2=S)cc1 ?
109

Data credit: PubChem BioAssay (NCI)
